- tested_system: 5-HT2C (Homo sapiens)
- Sequence (P28335 33-458): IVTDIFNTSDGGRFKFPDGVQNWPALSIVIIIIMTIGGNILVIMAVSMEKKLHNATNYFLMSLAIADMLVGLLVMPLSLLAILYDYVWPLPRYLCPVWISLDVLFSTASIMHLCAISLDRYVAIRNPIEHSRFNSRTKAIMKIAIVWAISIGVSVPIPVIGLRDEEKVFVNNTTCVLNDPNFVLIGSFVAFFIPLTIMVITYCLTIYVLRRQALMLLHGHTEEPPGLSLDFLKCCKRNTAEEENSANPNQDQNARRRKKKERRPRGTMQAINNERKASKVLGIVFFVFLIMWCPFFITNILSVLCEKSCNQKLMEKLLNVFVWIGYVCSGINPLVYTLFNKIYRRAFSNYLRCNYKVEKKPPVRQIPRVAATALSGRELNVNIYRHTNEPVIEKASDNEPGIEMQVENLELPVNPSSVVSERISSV
- measurement_description: cell-based
readout_label: pEC50
As a rule, pEC50 stands for the negative log10 of the concentration, concentration in M.

Provide pEC50, system 5-HT2C (Homo sapiens), entry COc1cc2c3c(c1OC)-c1ccccc1CC3NCC2 (stereo not shown) [Compound 15781, nornuciferine]
6.19

* * *

- tested_system: 5-HT2B (Homo sapiens, UniProt P41595)
- Sequence (P41595 whole entry): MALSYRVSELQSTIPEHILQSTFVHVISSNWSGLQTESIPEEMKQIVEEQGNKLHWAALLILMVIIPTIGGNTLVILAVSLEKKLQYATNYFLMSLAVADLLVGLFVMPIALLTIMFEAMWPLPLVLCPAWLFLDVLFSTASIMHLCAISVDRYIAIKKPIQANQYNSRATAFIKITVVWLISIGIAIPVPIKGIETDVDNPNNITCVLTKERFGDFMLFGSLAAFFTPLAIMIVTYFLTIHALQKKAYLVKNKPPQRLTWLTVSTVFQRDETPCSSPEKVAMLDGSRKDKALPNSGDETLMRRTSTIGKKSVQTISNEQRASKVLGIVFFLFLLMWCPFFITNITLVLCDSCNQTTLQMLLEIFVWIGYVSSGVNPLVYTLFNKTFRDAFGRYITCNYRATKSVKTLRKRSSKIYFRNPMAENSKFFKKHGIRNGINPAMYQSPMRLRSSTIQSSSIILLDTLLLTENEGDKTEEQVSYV
- measurement_description: cell-based
readout_label: IC50

Please look at COc1cc2c3c(c1OC)-c1ccccc1CC3NCC2 (stereo not shown) and tell me its recorded IC50 on 5-HT2B (Homo sapiens, UniProt P41595).
> 10 µM
